TGI values, listed per item
Test system: UACC-62 melanoma
Assay: NCI tumour cell line growth inhibition, 48 h

Examples with their reported TGI follow.
{"columns": ["compound", "valueMeasured"],
 "data": [
  ["CCCCCCC(=O)O[C@H]1CC[C@H]2[C@@H]3CCC4C/C(=N/NC(=O)c5cccc6c(=O)c7ccccc7[nH]c56)C=C(C)[C@]4(C)[C@H]3CC[C@]12C (some centres undefined)", "> 25 µM"],
  ["COc1ccc(-n2c(=O)[nH]n(C(C)=O)c2=O)cc1", "> 100 µM"],
  ["Cc1cc2c(cc1Cl)S(=O)(=O)OC(c1ccc([N+](=O)[O-])cc1)=N2", "> 100 µM"]
]}

// moving on: another record for TGI
*Q* Which TGI value is on record for `N#CCCN(CCCN(CCCN(C(=O)Nc1ccccc1)c1ccccc1)C(=O)Nc1ccccc1)C(=O)Nc1ccccc1` ?
*A* > 100 µM

###

Test system: NCI/ADR-RES ovarian
Experiment: NCI tumour cell line growth inhibition, 48 h
endpointName: TGI (µM)
Answer in µM, number only, no unit symbol.

Examples with their reported TGI follow.
{"columns": ["compound", "targetEntity", "unitsOfMeasure", "valueMeasured"],
 "data": [
  ["O=C(N/C(=C/c1ccc(Cl)cc1Cl)c1nc2ccccc2s1)c1ccccc1", "NCI/ADR-RES ovarian", "µM", 39.5],
  ["CC1=CC(=O)c2ccccc2C1=O", "NCI/ADR-RES ovarian", "µM", 30.2],
  ["O=c1oc(Cl)c(Cl)c2ccccc12", "NCI/ADR-RES ovarian", "µM", 41.3],
  ["COC1=CC(c2ccc[nH]2)=N/C1=C\\c1[nH]c(C)c(C(=O)CCCCC(=O)NC(C)(C)C)c1C", "NCI/ADR-RES ovarian", "µM", 3.21],
  ["COc1cccc([C@H]2C/C(=N\\NC(=O)C(=O)N[C@@H](C)c3ccccc3)c3ccccc3N2)c1", "NCI/ADR-RES ovarian", "µM", 0.0535],
  ["Cc1cc(C(=C2C=CC(=Nc3ccccc3)C=C2)c2ccc(Nc3ccccc3)cc2)ccc1N", "NCI/ADR-RES ovarian", "µM", 2.22],
  ["CN(C)C(=S)/N=c1\\ssc(=S)n1Cc1ccccc1", "NCI/ADR-RES ovarian", "µM", 0.401],
  ["O=S(=O)(Nc1ccc(Br)c(Cl)c1)c1ccc(-c2cnc(C3CC3)o2)cc1", "NCI/ADR-RES ovarian", "µM", 6.86]
]}

*Q* Provide the documented TGI with NCI/ADR-RES ovarian as the system for CC1CC[C@@]2(OC1)OC1C[C@H]3[C@@H]4CC=C5CC(OC6OC(CO)C(OC7OC(CO)C(O)C(OC8OCC(O)C(O)C8O)C7OC7OC(CO)C(O)C(O)C7O)C(O)C6O)CCC5(C)[C@H]4CCC3(C)C1[C@@H]2C (stereo partly drawn)
*A* 12.9

*Q* Same thing, different compound: `CC(=O)C(=Cc1ccc(C=C(C(C)=O)C(C)=O)cc1)C(C)=O`
*A* 11.2

*Q* Same thing, different compound: `COc1cc2c3c(n(CCCCN)c(=O)c2cc1OC)-c1cc2c(cc1C3=O)OCO2`
*A* 11.2

*Q* Same thing, different compound: Cc1cc(O)c(C2=NN(c3ccc(S(N)(=O)=O)cc3)C(c3ccccc3Cl)C2)cc1Cl (stereo not drawn)
*A* 6.85

Sourced from PubChem BioAssay (NCI)
